- study-target: GST-YTHDF1 (Homo sapiens, UniProt Q9BYJ9)
- Construct: made in house
- Sequence (Q9BYJ9 1-559): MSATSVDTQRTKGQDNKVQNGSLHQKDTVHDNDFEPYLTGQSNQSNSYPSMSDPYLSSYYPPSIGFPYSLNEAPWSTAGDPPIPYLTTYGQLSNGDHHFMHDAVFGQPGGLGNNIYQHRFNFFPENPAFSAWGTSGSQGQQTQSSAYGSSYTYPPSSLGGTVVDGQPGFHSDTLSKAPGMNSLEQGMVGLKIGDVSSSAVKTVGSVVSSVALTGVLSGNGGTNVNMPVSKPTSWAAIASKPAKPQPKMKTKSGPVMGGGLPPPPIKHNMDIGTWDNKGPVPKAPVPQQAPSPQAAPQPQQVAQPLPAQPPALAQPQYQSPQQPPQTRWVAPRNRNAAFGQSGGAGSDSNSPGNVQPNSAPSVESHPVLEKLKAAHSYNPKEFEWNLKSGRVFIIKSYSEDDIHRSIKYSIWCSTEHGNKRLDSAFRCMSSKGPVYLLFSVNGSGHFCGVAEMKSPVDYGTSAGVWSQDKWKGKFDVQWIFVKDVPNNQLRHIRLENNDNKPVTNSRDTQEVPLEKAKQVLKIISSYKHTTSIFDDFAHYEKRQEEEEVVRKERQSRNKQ
- protocol-notes: HTRF-based binding assay, DF1
- experimental-conditions: dose-response
assay-readout: pIC50
As a rule, pIC50 stands for the negative log10 of the concentration, concentration in M.

input: Answer with the recorded pIC50 of Cc1c(-c2ccc(N)cc2)sc2[nH]c(=S)[nH]c(=O)c12 [Compound 27] only.
output: 4.89

---

- study-target: GST-YTHDF2 (Homo sapiens, UniProt Q9Y5A9)
- Construct: made in house
- Sequence (Q9Y5A9 1-579): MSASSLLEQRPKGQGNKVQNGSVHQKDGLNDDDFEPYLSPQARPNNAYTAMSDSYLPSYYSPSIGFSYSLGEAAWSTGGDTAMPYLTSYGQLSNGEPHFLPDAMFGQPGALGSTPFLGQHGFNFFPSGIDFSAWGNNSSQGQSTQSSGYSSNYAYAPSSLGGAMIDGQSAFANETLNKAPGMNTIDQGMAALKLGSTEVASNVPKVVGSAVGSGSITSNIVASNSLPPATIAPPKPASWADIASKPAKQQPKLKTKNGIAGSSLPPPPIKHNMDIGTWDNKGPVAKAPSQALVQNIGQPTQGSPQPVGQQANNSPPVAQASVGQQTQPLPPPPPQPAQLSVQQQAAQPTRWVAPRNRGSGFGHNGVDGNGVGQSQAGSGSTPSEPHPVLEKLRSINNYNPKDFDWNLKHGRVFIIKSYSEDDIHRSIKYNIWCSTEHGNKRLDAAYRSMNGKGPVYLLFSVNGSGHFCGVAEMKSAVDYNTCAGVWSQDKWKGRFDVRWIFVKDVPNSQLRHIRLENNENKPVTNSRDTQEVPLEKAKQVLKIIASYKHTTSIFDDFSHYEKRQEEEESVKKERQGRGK
- protocol-notes: HTRF-based binding assay, competition with m6A-oligoRNA, DF2
- experimental-conditions: dose-response, competitor m6A-oligoRNA; read-out: DF2 IC50 (HTRF assay)
assay-readout: IC50 (µM)
Supply the numeric figure in µM, leaving out any unit text.

Some compounds with known IC50 results, for comparison:
                                   compound  assay_readout  numeric_value
0  O=c1[nH]c(=S)[nH]c2scc(-c3ccc(Br)cc3)c12           IC50             27
1                 O=c1[nH]c(=O)c2ccsc2[nH]1           IC50            290

input: Answer with the recorded IC50 of "O=c1cn[nH]c(=S)[nH]1" only.
output: 53

input: Answer with the recorded IC50 of "O=c1[nH]c(=S)[nH]c2n[nH]cc12" only.
output: 86

input: Answer with the recorded IC50 of "O=c1[nH]c(=S)[nH]c2scc(C3CCCCC3)c12" only.
output: 33

input: Answer with the recorded IC50 of "O=c1[nH]c(=S)[nH]c2scc(-c3ccccc3)c12" only.
output: 94

input: Answer with the recorded IC50 of "O=C(O)c1csc2[nH]c(=S)[nH]c(=O)c12" only.
output: 60

input: Answer with the recorded IC50 of "Cc1c(C(=O)NCc2ccccc2)sc2[nH]c(=S)[nH]c(=O)c12" only.
output: 10

input: Answer with the recorded IC50 of "CCOc1ccc(C=C2C(=O)NC(=S)NC2=O)cc1Cl" only.
output: 55

input: Answer with the recorded IC50 of "Cc1c(C(=O)NCCCCO)sc2[nH]c(=S)[nH]c(=O)c12" only.
output: 25

input: Answer with the recorded IC50 of "NCCC1C(=O)NC(=S)NC1=O" only.
output: 330

input: Answer with the recorded IC50 of "O=c1[nH]c(=S)[nH]c2nc[nH]c12" only.
output: 30
